Data origin: paper PMC3469158

Listed compounds paired with reported IC50
Tested on: PDE1
test description: PDE1 activity in homogenate of guinea pig lungs or hearts ([3H]-cAMP/[3H]-cGMP two-step procedure)
Format: biochemical
particulars: guinea pig lung or heart homogenate; read-out: IC50 for PDE1 inhibition

>  <compound>
CCOC(=O)C1=C[C@]2(CC)CCCN3CCc4c(n1c1ccccc41)[C@@H]32 [vinpocetine, reference compound]

>  <IC50>
30.8 µM

$$$$
>  <compound>
COc1ccc(C2CC(=O)c3c(O)cc(O[C@@H]4O[C@H](CO[C@@H]5O[C@@H](C)[C@H](O)[C@@H](O)[C@H]5O)[C@@H](O)[C@H](O)[C@H]4O)cc3O2)cc1OC (stereo partly drawn) [hesperidin-3′-O-methylether]

>  <IC50>
13.6 µM

$$$$
>  <compound>
COc1ccc([C@@H]2CC(=O)c3c(O)cc(O[C@@H]4O[C@H](CO[C@@H]5O[C@@H](C)[C@H](O)[C@@H](O)[C@H]5O)[C@@H](O)[C@H](O)[C@H]4O)cc3O2)cc1O [hesperidin]

>  <IC50>
> 100 µM

$$$$

----------
Tested on: PDE3
test description: PDE3 activity in homogenate of guinea pig lungs or hearts
Assay type: biochemical
particulars: guinea pig lung or heart homogenate; read-out: IC50 for PDE3 inhibition

>  <molecule>
COc1ccc(C2CC(=O)c3c(O)cc(O[C@@H]4O[C@H](CO[C@@H]5O[C@@H](C)[C@H](O)[C@@H](O)[C@H]5O)[C@@H](O)[C@H](O)[C@H]4O)cc3O2)cc1OC (stereo partly drawn)

>  <units of measure>
µM

>  <inequality operator>
=

>  <IC50>
13.2

$$$$
>  <molecule>
Cc1[nH]c(=O)c(C#N)cc1-c1ccncc1 [milrinone, reference compound]

>  <units of measure>
µM

>  <inequality operator>
=

>  <IC50>
2.7

$$$$
>  <molecule>
COc1ccc([C@@H]2CC(=O)c3c(O)cc(O[C@@H]4O[C@H](CO[C@@H]5O[C@@H](C)[C@H](O)[C@@H](O)[C@H]5O)[C@@H](O)[C@H](O)[C@H]4O)cc3O2)cc1O

>  <units of measure>
µM

>  <inequality operator>
>

>  <IC50>
100

$$$$
